System: HCT-116
assay_protocol: Cytotoxicity against human HCT116 assessed as viable cells after 72 hrs by calcein AM assay
Format: functional, cell-based
conditions_used: HCT-116, 72 h
assay_metric: pIC50
The meaning of pIC50 here: minus log10 of the concentration in molar units.

smiles_structure	system_name	pIC50
CCCCCCCCCCCC(=O)OC[C@@H](C)[C@@]1(O)[C@@H](O[C@@H]2OC[C@H](O)[C@H](O[C@@H]3OC[C@@H](O)[C@H](O)[C@H]3OC(=O)c3ccc(OC)cc3)[C@H]2OC(C)=O)C[C@H]2[C@@H]3CC=C4C[C@@H](O)CC[C@]4(C)[C@H]3CC[C@@]21C	HCT-116	5.55

We next turn to a different compound, shown below.
Entry under review: `COc1ccc(C(=O)O[C@H]2[C@H](O[C@@H]3[C@@H](OC(C)=O)[C@H](O[C@H]4C[C@H]5[C@@H]6CC=C7C[C@@H](O)CC[C@]7(C)[C@H]6CC[C@]5(C)[C@@]4(O)[C@H](C)C(=O)CCC(C)C)OC[C@@H]3O)OC[C@@H](O)[C@@H]2O)cc1` . Reported pIC50?
5.08

----------
Tested on: G-361
assay_protocol: Cytotoxicity against human G361 cells assessed as viable cells after 72 hrs by calcein AM assay
Type: functional, cell-based
conditions_used: G-361, 72 h
assay_metric: pIC50
The meaning of pIC50 here: minus log10 of the concentration in molar units.

Here's what some known entries look like.
smiles_structure	reported
COc1ccc(C(=O)O[C@H]2[C@H](O[C@@H]3[C@@H](OC(C)=O)[C@H](O[C@H]4C[C@H]5[C@@H]6CC=C7C[C@@H](O)CC[C@]7(C)[C@H]6CC[C@]5(C)[C@@]4(O)[C@H](C)COC(=O)c4ccccc4)OC[C@@H]3O)OC[C@@H](O)[C@@H]2O)cc1	5.78
COc1ccc(C(=O)O[C@H]2[C@H](O[C@@H]3[C@@H](OC(C)=O)[C@H](O[C@H]4C[C@H]5[C@@H]6CC=C7C[C@@H](O)CC[C@]7(C)[C@H]6CC[C@]5(C)[C@@]4(O)[C@H](C)C(=O)CCC(C)C)OC[C@@H]3O)OC[C@@H](O)[C@@H]2O)cc1	6.00

We next turn to a different molecule, shown below.
Entry under review: `CCCCCCCCCCCC(=O)OC[C@@H](C)[C@@]1(O)[C@@H](O[C@@H]2OC[C@H](O)[C@H](O[C@@H]3OC[C@@H](O)[C@H](O)[C@H]3OC(=O)c3ccc(OC)cc3)[C@H]2OC(C)=O)C[C@H]2[C@@H]3CC=C4C[C@@H](O)CC[C@]4(C)[C@H]3CC[C@@]21C` . Reported pIC50?
8.10

----------
System: A549
assay_protocol: Cytotoxicity against human A549 cells assessed as viable cells after 72 hrs by calcein AM assay
Assay type: functional, cell-based
conditions_used: A549, 72 h
assay_metric: IC50 (µM)
// units = µM; emit number, no label

smiles_structure	IC50, µM
C/C=C/C(=O)OC[C@@H](C)[C@@]1(O)[C@@H](O[C@@H]2OC[C@H](O)[C@H](O[C@@H]3OC[C@@H](O)[C@H](O)[C@H]3OC(=O)c3ccc(OC)cc3)[C@H]2OC(C)=O)C[C@H]2[C@@H]3CC=C4C[C@@H](O)CC[C@]4(C)[C@H]3CC[C@@]21C	0.55
COc1ccc(C(=O)O[C@H]2[C@H](O[C@@H]3[C@@H](OC(C)=O)[C@H](O[C@H]4C[C@H]5[C@@H]6CC=C7C[C@@H](O)CC[C@]7(C)[C@H]6CC[C@]5(C)[C@@]4(O)[C@H](C)COCc4ccccc4)OC[C@@H]3O)OC[C@@H](O)[C@@H]2O)cc1	0.1

We next turn to a different compound, shown below.
Entry under review: `CCCCCCCCC(=O)OC[C@@H](C)[C@@]1(O)[C@@H](O[C@@H]2OC[C@H](O)[C@H](O[C@@H]3OC[C@@H](O)[C@H](O)[C@H]3OC(=O)c3ccc(OC)cc3)[C@H]2OC(C)=O)C[C@H]2[C@@H]3CC=C4C[C@@H](O)CC[C@]4(C)[C@H]3CC[C@@]21C` . Reported IC50?
0.59
